Experiment: Selectivity index, ratio of IC50 for human lymphocytes to IC50 for human Jurkat E6-1 cells
Format: toxicity
Conditions: human lymphocytes versus Jurkat E6-1 cells, read-out: Ratio IC50
Readout Label: selectivity ratio
The answer should be a number; do not append a unit.

Consider the following illustrative entries.
>  <Structure>
COC(=O)/C(=C\c1ccc(OC(=O)c2cc(OC)cc(OC)c2OC)cc1)Sc1ccnc2cc(Cl)ccc12

>  <selectivity ratio>
4.74

$$$$
>  <Structure>
COC(=O)/C(=C\c1ccc(OC(=O)c2cccc(OC)c2OC)cc1)Sc1ccnc2cc(Cl)ccc12

>  <selectivity ratio>
3.36

$$$$
>  <Structure>
COC(=O)/C(=C\c1ccc(OC(=O)c2ccc(OC)c(OC)c2OC)cc1)Sc1ccnc2cc(Cl)ccc12

>  <selectivity ratio>
9.27

$$$$

Request: So what does the record say about selectivity ratio for "COC(=O)/C(=C\c1ccc(OC(=O)c2ccc(OC)cc2)cc1)Sc1ccnc2cc(Cl)ccc12" ?
Response: 5.77

Request: So what does the record say about selectivity ratio for "COC(=O)/C(=C\c1ccc(OC(=O)c2ccc(OC)cc2OC)cc1)Sc1ccnc2cc(Cl)ccc12" ?
Response: 4.09

Request: So what does the record say about selectivity ratio for "COC(=O)/C(=C\c1ccc(OC(=O)c2cc(OC)c(OC)c(OC)c2)cc1)Sc1ccnc2cc(Cl)ccc12" ?
Response: 7.7

Request: So what does the record say about selectivity ratio for "COC(=O)/C(=C\c1ccc(OC(=O)c2cc(OC)c(OC)cc2OC)cc1)Sc1ccnc2cc(Cl)ccc12" ?
Response: 5.44

Request: So what does the record say about selectivity ratio for "COC(=O)/C(=C\c1ccc(OC(=O)c2cc(OC)cc(OC)c2)cc1)Sc1ccnc2cc(Cl)ccc12" ?
Response: 2.92

====

Tested on: Jurkat E6.1
Assay: Induction of apoptosis in human Jurkat E6-1 cells assessed as necrotic cells at 5 uM after 24 hrs by Annexin-V-FITC/propidium iodide staining based flow cytometric analysis (reference value: 1.26 +/- 0.24 %)
Format: functional
Readout Label: Activity (%)
Numbers only; they are read as %.

>  <Structure>
COC(=O)/C(=C\c1ccc(OC(=O)c2ccc(OC)c(OC)c2OC)cc1)Sc1ccnc2cc(Cl)ccc12

>  <Assay System>
Jurkat E6.1

>  <Activity / %>
55.6

$$$$
>  <Structure>
COC(=O)/C(=C\c1ccc(OC(=O)c2cc(OC)c(OC)cc2OC)cc1)Sc1ccnc2cc(Cl)ccc12

>  <Assay System>
Jurkat E6.1

>  <Activity / %>
21.4

$$$$

Request: So what does the record say about Activity for "COC(=O)/C(=C\c1ccc(OC(=O)c2ccc(OC)c(OC)c2)cc1)Sc1ccnc2cc(Cl)ccc12" ?
Response: 21.5

Request: So what does the record say about Activity for "COC(=O)/C(=C\c1ccc(O)cc1)Sc1ccnc2cc(Cl)ccc12" ?
Response: 38.8

Request: So what does the record say about Activity for "COC(=O)/C(=C\c1ccc(OC(=O)c2cc(OC)c(OC)c(OC)c2)cc1)Sc1ccnc2cc(Cl)ccc12" ?
Response: 35.6

====

Reported pIC50 is given for each of the following compounds.
System: Lymphocyte
Assay: Cytotoxicity against human lymphocytes after 24 to 48 hrs by MTT assay
Format: cell-based
Convention used: pIC50 is expressed as -log10 of the molar concentration.

>  <Compound>
COC(=O)/C(=C\c1ccc(OC(=O)c2ccc(OC)c(OC)c2OC)cc1)Sc1ccnc2cc(Cl)ccc12

>  <Readout Number>
4.65

$$$$
>  <Compound>
COC(=O)/C(=C\c1ccc(OC(=O)c2ccc(OC)cc2OC)cc1)Sc1ccnc2cc(Cl)ccc12

>  <Readout Number>
4.38

$$$$
>  <Compound>
COc1cccc2c1C(=O)c1c(O)c3c(c(O)c1C2=O)C[C@@](O)(C(=O)CO)C[C@@H]3O[C@H]1C[C@H](N)[C@H](O)[C@H](C)O1

>  <Readout Number>
5.36

$$$$
>  <Compound>
O=[As][As+](=O)[O-] (stereo not drawn) [ARSENIC TRIOXIDE]

>  <Readout Number>
4.82

$$$$
>  <Compound>
COC(=O)/C(=C\c1ccc(OC(=O)c2cc(OC)cc(OC)c2)cc1)Sc1ccnc2cc(Cl)ccc12

>  <Readout Number>
4.08

$$$$

Request: So what does the record say about pIC50 for "COC(=O)/C(=C\c1ccc(OC(=O)c2ccc(OC)c(OC)c2)cc1)Sc1ccnc2cc(Cl)ccc12" ?
Response: 4.29

Request: So what does the record say about pIC50 for "COC(=O)/C(=C\c1ccc(O)cc1)Sc1ccnc2cc(Cl)ccc12" ?
Response: 4.47

Request: So what does the record say about pIC50 for "COC(=O)/C(=C\c1ccc(OC(=O)c2cc(OC)c(OC)cc2OC)cc1)Sc1ccnc2cc(Cl)ccc12" ?
Response: 4.28

Request: So what does the record say about pIC50 for "COC(=O)/C(=C\c1ccc(OC(=O)c2cc(OC)cc(OC)c2OC)cc1)Sc1ccnc2cc(Cl)ccc12" ?
Response: 4.13

Request: So what does the record say about pIC50 for "COC(=O)/C(=C\c1ccc(OC(=O)c2cc(OC)c(OC)c(OC)c2)cc1)Sc1ccnc2cc(Cl)ccc12" ?
Response: 4.45

Request: So what does the record say about pIC50 for "COC(=O)/C(=C\c1ccc(OC(=O)c2ccc(OC)cc2)cc1)Sc1ccnc2cc(Cl)ccc12" ?
Response: 4.20

Request: So what does the record say about pIC50 for "COC(=O)/C(=C\c1ccc(OC(=O)c2cccc(OC)c2OC)cc1)Sc1ccnc2cc(Cl)ccc12" ?
Response: 4.06

The origin of these recorded values is ChEMBL document CHEMBL4184243.
